molecular target: GCGR (Homo sapiens); assay: I125-glucagon binding assay (competition, GCGR membrane fractions); parameters: expressed in transfected cells; host or cells: CHO-K1; conditions: competition with I125-glucagon 0.0625 nM; membrane fractions from GCGR overexpressed CHO-K1 cells
MEASURE: IC50 (nM)

{"columns": ["MOLECULE", "SYSTEM_TESTED", "VALUE_UNIT", "IC50"],
 "data": [
  ["CCCC[C@H](Nc1ccc(C(=O)NCCC(=O)OCC)cc1)c1ccc(-c2nc3ccccc3o2)cc1 [Compound 4-15]", "GCGR (Homo sapiens)", "nM", 350],
  ["COC(=O)CCNC(=O)c1ccc(N[C@H](c2ccc(-c3nnc(-c4ccccc4)o3)cc2)C(C)C)cc1 [Compound 1-63]", "GCGR (Homo sapiens)", "nM", 1530],
  ["CC(C)CC(Nc1ccc(C(=O)NCCC(=O)O)cc1)c1ccc(-c2nnc(-c3ccc(F)cc3)o2)cc1 (stereo not shown) [Compound 1-28]", "GCGR (Homo sapiens)", "nM", 563]
]}

I = CCOC(=O)CCNC(=O)c1ccc(NC(CC(C)C)c2ccc(-c3noc(-c4ccccc4)n3)cc2)cc1 (stereo not shown) [Compound 2-9]
II = CC(C)[C@@H](Nc1ccc(-c2nnc(-c3ccccc3)o2)cc1)c1ccc(C(=O)NCCC(=O)O)cc1 [Compound 3-15]
Compare the recorded IC50 of I and II ; state which is larger. Answer by quoting the chosen item's label.
I
(I: 1490 nM, II: 21 nM)

I = CCCC(Nc1ccc(C(=O)NCCC(=O)O)cc1)c1ccc(-c2nnc(C(F)(F)F)o2)cc1 (stereo not shown) [Compound 1-8]
II = CC(C)[C@H](Nc1ccc(C(=O)NCCC(=O)O)cc1)c1ccc(-c2nnc(C(F)(F)F)o2)cc1 (racemic) [Compound 1-57]
Compare the recorded IC50 of I and II ; state which is larger. Answer by quoting the chosen item's label.
II
(II: 2500 nM, I: 651 nM)

* * *

target: glucagon receptor (GCGR) (Homo sapiens, UniProt P47871); test: Glucagon cAMP inhibition assay (Cisbio cAMP Dynamic 2 HTRF); conditions: GCGR overexpressed CHO-K1 cells or human primary hepatocytes (not specified); glucagon at EC50
Sequence (P47871 26-477, species assumed): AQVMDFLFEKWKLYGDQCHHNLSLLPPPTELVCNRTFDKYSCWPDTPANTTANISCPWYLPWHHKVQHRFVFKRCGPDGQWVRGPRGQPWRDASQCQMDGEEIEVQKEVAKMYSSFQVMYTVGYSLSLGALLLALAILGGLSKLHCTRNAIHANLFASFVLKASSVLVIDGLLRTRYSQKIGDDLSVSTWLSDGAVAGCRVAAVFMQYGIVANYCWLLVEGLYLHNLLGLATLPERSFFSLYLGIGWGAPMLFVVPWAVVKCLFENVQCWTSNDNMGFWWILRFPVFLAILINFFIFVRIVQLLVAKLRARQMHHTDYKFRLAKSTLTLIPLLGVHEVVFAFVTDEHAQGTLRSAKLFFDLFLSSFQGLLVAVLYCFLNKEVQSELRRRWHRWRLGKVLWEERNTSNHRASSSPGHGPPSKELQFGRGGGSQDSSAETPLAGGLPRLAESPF
MEASURE: IC50 (nM)

{"columns": ["COMPOUND", "SYSTEM_TESTED", "IC50 / nM"],
 "data": [
  ["CC(C)C(Oc1ccc(-c2nc3ccccc3s2)cc1)c1ccc(C(=O)NCCC(=O)O)cc1 (stereo not shown)", "glucagon receptor (GCGR) (Homo sapiens, UniProt P47871)", 209],
  ["CC(C)C(Nc1ccc(C(=O)NCCC(=O)O)cc1)c1ccc(-c2noc(-c3ccccc3)n2)cc1 (stereo not shown)", "glucagon receptor (GCGR) (Homo sapiens, UniProt P47871)", 570],
  ["CCC(C)C(Nc1ccc(-c2nnc(-c3ccccc3)o2)cc1)c1ccc(C(=O)NCCC(=O)O)cc1 (stereo not shown)", "glucagon receptor (GCGR) (Homo sapiens, UniProt P47871)", 650]
]}

a = CCCC[C@@H](Nc1ccc(C(=O)NCCC(=O)OCC)cc1)c1ccc(-c2noc(C(F)(F)F)n2)cc1
b = CCOC(=O)CCNC(=O)c1ccc(NC(CC(C)C)c2ccc(-c3noc(-c4ccccc4)n3)cc2)cc1 (stereo not shown)
Hi there, can you help? I need to know whether a or b has lower measured IC50. Answer by quoting the chosen item's label.
b

1 = CCOC(=O)CCNC(=O)c1ccc(NC(c2ccc(-c3noc(-c4ccc(F)cc4)n3)cc2)C(C)C)cc1 (stereo not shown)
2 = CC(C)C(Nc1ccc(C(=O)NCCC(=O)O)cc1)c1ccc(-c2noc(-c3cccs3)n2)cc1 (stereo not shown)
Compare the recorded IC50 of 1 and 2 ; state which is larger. Answer by quoting the chosen item's label.
2
(2: 504 nM, 1: 248 nM)

* * *

target: GCGR (Homo sapiens, UniProt P47871); test: I125-glucagon binding assay (competition, GCGR membrane fractions); set-up: expressed in transfected cells; host or cells: CHO-K1; settings: competition with I125-glucagon 0.0625 nM; membrane fractions from GCGR overexpressed CHO-K1 cells
Sequence (P47871 26-477, species assumed): as above
MEASURE: IC50 (nM)

Consider the worked cases shown below.
{"columns": ["MOLECULE", "MEASURE", "QUANTITATIVE_READOUT"],
 "data": [
  ["CCCC(Nc1ccc(C(=O)NCCC(=O)O)cc1)c1ccc(-c2nnc(-c3ccccc3)o2)cc1 (stereo not shown)", "IC50", 211],
  ["CCOC(=O)CCNC(=O)c1ccc(NC(c2ccc(-c3nnc(-c4ccccc4)o3)cc2)C(C)CC)cc1 (stereo not shown)", "IC50", 1870],
  ["CC(C)C[C@H](Nc1ccc(C(=O)NCCC(=O)O)cc1)c1ccc(-c2nc(-c3ccccc3)no2)cc1", "IC50", 20]
]}

I = CCC(C)[C@H](Nc1ccc(C(=O)NCCC(=O)O)cc1)c1ccc(-c2nc3ccccc3o2)cc1 (stereo partly shown)
II = CCOC(=O)CCNC(=O)c1ccc(NC(c2ccc(-c3nnc(C(C)(C)C)o3)cc2)C(C)CC)cc1 (stereo not shown)
III = CCOC(=O)CCNC(=O)c1ccc(NC(c2ccc(-c3noc(-c4ccccc4)n3)cc2)C2CCCCC2)cc1 (stereo not shown)
IV = CC(C)CC(Nc1ccc(C(=O)NCCC(=O)O)cc1)c1ccc(-c2nnc(C(C)(C)C)o2)cc1 (stereo not shown)
Arrange items by their IC50 values in increasing order. Lab note: final answer is the ordered label list.
I, III, IV, II
(I: 17 nM, III: 178 nM, IV: 455 nM, II: 3310 nM)

* * *

target: glucagon receptor (GCGR) (Homo sapiens, UniProt P47871); assay: Glucagon cAMP inhibition assay (Cisbio cAMP Dynamic 2 HTRF); settings: GCGR overexpressed CHO-K1 cells or human primary hepatocytes (not specified); glucagon at EC50
pIC50: −log10 of the molar value.
MEASURE: pIC50

Consider the worked cases shown below.
{"columns": ["COMPOUND", "pIC50"],
 "data": [
  ["CC(C)C(Nc1ccc(-c2nnc(-c3ccccc3)o2)cc1)c1ccc(C(=O)NCCC(=O)O)cc1 (stereo not shown)", 5.54],
  ["CC(C)CC(Nc1ccc(C(=O)NCCC(=O)O)cc1)c1ccc(-c2noc(-c3cccs3)n2)cc1 (stereo not shown)", 5.86]
]}

A = CCC(C)[C@H](Nc1ccc(C(=O)NCCC(=O)O)cc1)c1ccc(-c2nnc(-c3ccccc3)o2)cc1 (stereo partly shown)
B = CCC(C)[C@@H](Nc1ccc(C(=O)NCCC(=O)O)cc1)c1ccc(-c2nnc(C(F)(F)F)o2)cc1 (stereo partly shown)
Compare the recorded pIC50 of A and B ; state which is larger. Answer by quoting the chosen item's label.
A
(A: 5.69, B: 5.49)

* * *

target: glucagon receptor (GCGR) (Homo sapiens, UniProt P47871); assay: Glucagon cAMP inhibition assay (Cisbio cAMP Dynamic 2 HTRF); conditions: GCGR overexpressed CHO-K1 cells or human primary hepatocytes (not specified); glucagon at EC50
pIC50: −log10 of the molar value.
MEASURE: pIC50

1 = CC(C)C(Oc1ccc(C(=O)NCCC(=O)O)cc1)c1ccc(-c2nc3ccccc3s2)cc1 (stereo not shown) [Compound 6-2]
2 = CC(C)C[C@H](Nc1ccc(C(=O)NCCC(=O)O)cc1)c1ccc(-c2nnc(-c3ccccc3)o2)cc1 [Compound 1-61]
Compare the recorded pIC50 of 1 and 2 ; state which is larger. Answer by quoting the chosen item's label.
1
(1: 6.88, 2: 5.49)

A = CCCC[C@H](Nc1ccc(C(=O)NCCC(=O)OCC)cc1)c1ccc(-c2nnc(-c3ccccn3)o2)cc1 [Compound 1-43]
B = CCC(C)[C@H](Nc1ccc(C(=O)NCCC(=O)O)cc1)c1ccc(-c2nc3ccccc3o2)cc1 (stereo partly shown) [Compound 4-20]
Hi there, can you help? I need to know whether A or B has lower measured pIC50. Answer by quoting the chosen item's label.
B
(B: 6.01, A: 7.33)

* * *

molecular target: UniProt:P47871; experiment: I125-glucagon binding assay (competition, GCGR membrane fractions); set-up: expressed in transfected cells; host or cells: CHO-K1; details: competition with I125-glucagon 0.0625 nM; membrane fractions from GCGR overexpressed CHO-K1 cells
MEASURE: IC50 (µM)

Consider the worked cases shown below.
{"columns": ["COMPOUND", "IC50 / µM"],
 "data": [
  ["CC(C)[C@@H](Nc1ccc(C(=O)NCCC(=O)O)cc1)c1ccc(-c2noc(-c3ccccc3)n2)cc1 [Compound 2-23]", 0.537],
  ["CCC(C)[C@H](Nc1ccc(C(=O)NCCC(=O)O)cc1)c1ccc(-c2noc(-c3ccccc3)n2)cc1 (stereo partly drawn) [Compound 2-19]", 0.049],
  ["CCOC(=O)CCNC(=O)c1ccc(N[C@H](c2ccc(-c3nc4ccccc4s3)cc2)C(C)C)cc1 [Compound 4-25]", 0.188],
  ["CCCCC(Nc1ccc(C(=O)NCCC(=O)OC)cc1)c1ccc(-c2noc(-c3ccccc3)n2)cc1 (stereo not drawn) [Compound 2-32]", 0.616],
  ["CCC(C)[C@@H](Nc1ccc(C(=O)NCCC(=O)O)cc1)c1ccc(-c2nnc(-c3ccccc3)o2)cc1 (stereo partly drawn) [Compound 1-50]", 0.082]
]}

a = CCOC(=O)CCNC(=O)c1ccc(N[C@@H](c2ccc(-c3noc(-c4ccccc4)n3)cc2)C(C)C)cc1 [Compound 2-22]
b = CCC(C)[C@H](Nc1ccc(C(=O)NCCC(=O)O)cc1)c1ccc(-c2nc(-c3ccccc3)no2)cc1 (stereo partly drawn) [Compound 5-6]
c = CCCC[C@H](Nc1ccc(C(=O)NCCC(=O)OCC)cc1)c1ccc(-c2noc(-c3ccccc3)n2)cc1 [Compound 2-33]
Arrange items by their IC50 values in increasing order. Lab note: final answer is the ordered label list.
b, a, c
(b: 0.0131 µM, a: 0.673 µM, c: 1.04 µM)

P = CCCCC(Nc1ccc(C(=O)NCCC(=O)O)cc1)c1ccc(-c2nnc(C(C)(C)C)o2)cc1 (stereo not drawn) [Compound 1-20]
Q = CCCC[C@H](Nc1ccc(C(=O)NCCC(=O)O)cc1)c1ccc(-c2nc(-c3ccccc3)no2)cc1 [Compound 5-8]
R = COC(=O)CCNC(=O)c1ccc(NC(c2ccc(-c3noc(-c4ccccc4)n3)cc2)C(C)C)cc1 (stereo not drawn) [Compound 2-31]
S = CCC(C)[C@H](Nc1ccc(C(=O)NCCC(=O)O)cc1)c1ccc(-c2nnc(C(F)(F)F)o2)cc1 (stereo partly drawn) [Compound 1-36]
Arrange the 4 compounds from largest to smallest IC50. Lab note: final answer is the ordered label list.
P, S, R, Q
(P: 0.562 µM, S: 0.359 µM, R: 0.204 µM, Q: 0.014 µM)
